- Tested on: TREM-1
- assay.notes: Rat model of myocardial ischemia-reperfusion, cardiac function by conductance catheter
- Type: in vivo
- Design: unit not given here
- assay.setup: six weeks after ischemia-reperfusion; 3 mg/kg once a day for 5 days
# cutoff 2 applies to ESPVR; >= gives Criterion met, < gives Criterion not met

EDAGEY (listed as Homo sapiens) [TLT1-LR6-2] ... Criterion not met

Query block: Does LQEEDAGEYGCM (listed as Homo sapiens) [TLT1-LR12] have a reported ESPVR of at least 2?
Result block: Criterion met

Query block: Does GEYGCM (listed as Homo sapiens) [TLT-1LR6-3] have a reported ESPVR of at least 2?
Result block: Criterion not met

Query block: Does ELMEGGQECADY (synthetic peptide scramble) [TLT-1-LR12scr, reference compound] have a reported ESPVR of at least 2?
Result block: Criterion not met

Query block: Does GLYQCV (listed as Homo sapiens) [TREM1-LP6-3] have a reported ESPVR of at least 2?
Result block: Criterion met

Query block: Does EDSGLY (listed as Homo sapiens) [TREM1-LP6-2] have a reported ESPVR of at least 2?
Result block: Criterion met

====

Please provide measured ESPVR for the entries that follow.
- System: TREM-1
- assay.notes: Rat model of myocardial ischemia-reperfusion, cardiac function by conductance catheter
- Assay type: in vivo
- Parameters: unit not given here
- assay.setup: six weeks after ischemia-reperfusion; 3 mg/kg once a day for 5 days

Would you be so kind as to report ESPVR for each listed record?
1. LQEEDAGEYGCMVDGAR (listed as Homo sapiens) [TLT1-LR17]
2. LQVEDS (listed as Homo sapiens) [TREM1-LP6-1]
3. LQVEDSGLYQCVIYQPP (listed as Homo sapiens) [TREM1-LP17]

Result block:
1. 2 ± 0.2
2. 2 ± 0.3
3. 2.2 ± 0.3

Would you be so kind as to report ESPVR for each listed record?
1. LQEEDA (listed as Homo sapiens) [TLT1-LR6-1]
2. LQVEDSGLYQCV (listed as Homo sapiens) [TREM1-LP12]

Result block:
["2.4 ± 0.4", "2.3 ± 0.4"]
